Answer each item with its documented melting point.
One number for each entry, in °C.

For every listed record, write down its melting point.
1. O=C1Nc2cc(Br)ccc2/C1=C1/Nc2ccccc2/C1=N\OCCN1CCOCC1 [Cpd 8]
2. CCN(CC)C(=O)O/N=C1/C(=C2/C(=O)Nc3cc(Br)ccc32)Nc2ccccc21 [Cpd 4]
3. CN(CCO/N=C1/C(=C2/C(=O)Nc3cc(Br)ccc32)Nc2ccccc21)CC(O)CO (stereo not drawn) [Cpd 10]
4. O=C1Nc2cc(Br)ccc2/C1=C1/Nc2ccccc2/C1=N\OCCBr [Cpd 1]

Key:
1: 235; 2: 237; 3: 195; 4: 252

Exercise: What value of melting point has been recorded for this entry: O=C1Nc2cc(Br)ccc2/C1=C1/Nc2ccccc2/C1=N\OCCN(CCO)CCO [Cpd 9]
Key: 201
